melting point overview

Sample records with melting point:
ON=Cc1cccc(OCc2ccncc2)c1	177 to 179 °C
Oc1ccc(-n2cccn2)cc1	107 to 109 °C
CNC(C)(C#N)Cn1cc(Br)cn1 (configuration not stated)	33 to 35 °C
Cc1ccc(N)c(OCCN(C)C)c1	51 to 53 °C

With those in mind, consider the next molecule.
Sure, the documented melting point for Cc1cc(C#N)ccc1CO is 66 to 68 °C

* * *

readout: melting point

N#Cc1ccccc1OCC(=O)O	182 to 184 °C
O=C(NCCO)c1ccc(O)cc1O	163 to 165 °C
CC(CC(=O)O)c1ccc(Br)cc1 (configuration not stated)	101 to 103 °C
O=C1Nc2cc3c(cc2C1=O)OCCCO3	230 to 232 °C
C/C(=N\OCC(=O)O)c1ccc2c(c1)OCO2	136 to 138 °C
Sc1nnc(-c2c[nH]c3ccccc23)o1	218 to 225 °C

Measured melting point, CCOc1cc(C=O)ccc1OCc1cccnc1 : 73 to 75 °C

Form field melting point, entry CC1(c2ccc(Br)cc2)CC(=O)NC1=O (configuration not stated) : 144 to 146 °C

Query NC(=O)NC(=O)OCCCl yields melting point of 185 to 187 °C

Notebook: CC(=O)Nc1cc(C(=O)O)ccc1C , melting point read as 277 to 279 °C

The compound CCCc1cc(O)c2ccccc2n1 showed melting point equal to 168 to 170 °C

Form field melting point, entry NC1CCN(c2ccccc2F)C1=O (configuration not stated) : 67 to 69 °C

* * *

readout: melting point

CCOC(=O)Cc1nnc(N)s1	156 to 158 °C
O=C(O)c1ccn(-c2ccc(Cl)c(Cl)c2)n1	191 to 193 °C
COCCNc1ccc([N+](=O)[O-])cc1C(=O)O	204 to 206 °C

melting point for NC(=O)CC1CCCC1 is 149 to 151 °C

In plain terms, CC1(c2ccc3c(c2)OCCO3)NC(=O)NC1=O (configuration not stated) has a documented melting point of 180 to 182 °C

For reference, reported melting point for CC(C)(C(=O)O)c1ccc(-c2ccccc2)cc1 stands at 173 to 175 °C

get_value(item= c1ccc2c(c1)CN1CCCC1CN2 (configuration not stated) , readout=melting point) returns 107 to 109 °C

* * *

Reported melting point values for the following molecules.

Previously resolved entries follow.
Cc1nc(-c2nnc[nH]2)sc1C(=O)O	286 to 288 °C
C=CC(=O)Nc1cccc(C(F)(F)F)c1	79 to 81 °C
NC(=O)CNS(=O)(=O)c1ccc(F)c(C(=O)O)c1	201 to 203 °C
Cc1csc(NCC(F)(F)F)n1	142 to 144 °C
O=C(O)CCSCC(=O)Nc1ccc(Br)cc1	148 to 150 °C

Measured melting point, O=C(O)c1cccn1-c1cccc(I)c1 : 165 to 167 °C

melting point measured on O=C(O)CCC(=O)NCC(=O)c1ccccc1F = 156 to 158 °C

melting point for O=C(CCl)N1CCN(S(=O)(=O)c2ccc3c(c2)CCC3)CC1 is 120 to 122 °C

response.value for NCCNc1ccc(-c2ccccc2)nn1 (field: melting point) = 113 to 115 °C

C#CCNC(=O)c1cccnc1Cl yielded melting point of 107 to 109 °C

The molecule listed as N#Cc1ccc(Oc2ccc(Cl)cc2)c(F)c1 has a reported melting point of 67 to 69 °C

For CNC(=O)Cc1ccccc1N the molecule record lists melting point as 85 to 87 °C

The molecule identified as Cc1nn(-c2ccccc2)c(Oc2ccc(F)cc2)c1C=O registered its melting point at 105 to 107 °C

Recorded result, Cc1ccc2ncc(C(=O)O)c(=O)n2c1 , melting point: 259 to 261 °C
